- Procedure Summary: Plasma pharmacokinetics and tissue distribution 2 h after oral cabazitaxel 10 mg/kg with vehicle or 25 mg/kg ritonavir in wild-type, Oatp1a/1b−/−, Oatp1a/1b/2b1−/−, OATP1B1- and OATP1B3-transgenic mice
- Assay type: in vivo
- Recorded Conditions: male, FVB, mouse, plasma, po, 25 mg/kg, AUC0-[…], wild-type mice; ritonavir 25 mg/kg oral; cabazitaxel 10 mg/kg oral
Observed Property: AUC(0-t) (µM·h)
A number alone suffices; assume µM·h.

Query: Which AUC(0-t) value is on record for CC(C)c1nc(CN(C)C(=O)N[C@H](C(=O)N[C@@H](Cc2ccccc2)C[C@H](O)[C@H](Cc2ccccc2)NC(=O)OCc2cncs2)C(C)C)cs1 ?
Result: 5.96

Origin of measurements: patent US20240226072A1
